- assay-system: T1, human TREM2 (human, UniProt Q9NZC2 19-174, limits assumed)
- T1 construct: also called triggering receptor expressed on myeloid cells 2
- T1 sequence: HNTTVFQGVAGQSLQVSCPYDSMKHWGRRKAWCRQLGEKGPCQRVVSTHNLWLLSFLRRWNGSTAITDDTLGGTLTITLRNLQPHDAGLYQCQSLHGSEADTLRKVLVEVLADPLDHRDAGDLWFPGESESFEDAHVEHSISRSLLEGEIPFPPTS
- assay-summary: 2nd screen 100 nM
Measured Binding Signal (fold over 6E7 Parental antibody) of individual entries

V92 (antibody, V domains shown) VH: EVQLVQSGAEVKKPGESLKISCKGSGYSFTSYWIAWVRQMPGKGLEWMGIIYPGDSDTRYSPSFQGQVTISADKSISTAYLQWSSLKASDTAMYFCARQRTFHYDSSDYFDYWGQGTLVTVSS VL: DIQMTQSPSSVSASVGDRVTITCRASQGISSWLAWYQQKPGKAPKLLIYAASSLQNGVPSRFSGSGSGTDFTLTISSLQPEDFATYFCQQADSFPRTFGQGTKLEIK :: 0.65 fold
V33 (antibody, V domains shown) VH: EVQLVQSGAEVKKPGESLKISCKGSGYSFTSYWIAWVRQMPGKGLEWMGIIYPGDSDTRYSPSFQGQVTISADKSISTAYLQWSSLKASDTAMYFCARQRTFYGDSSDYFDYWGQGTLVTVSS VL: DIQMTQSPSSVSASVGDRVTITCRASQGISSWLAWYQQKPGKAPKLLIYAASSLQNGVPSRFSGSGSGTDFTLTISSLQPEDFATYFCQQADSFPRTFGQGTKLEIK :: 0.34 fold

[in] Requested field: Binding Signal (fold over 6E7 Parental antibody). Item: V10 (antibody, V domains shown) VH: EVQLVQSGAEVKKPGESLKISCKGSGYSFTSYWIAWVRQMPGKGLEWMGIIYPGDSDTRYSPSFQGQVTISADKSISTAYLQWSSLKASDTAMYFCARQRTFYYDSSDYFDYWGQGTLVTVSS VL: DIQMTQSPSSVSASVGDRVTITCRASQGISSWLAWYQQKPGKAPKLLIYSASSLQNGVPSRFSGSGSGTDFTLTISSLQPEDFATYFCQQADSFPRTFGQGTKLEIK
[out] 0.7 fold
